The reported measurements were obtained from PubChem BioAssay AID1779.

# system_under_test: Tyrosine-protein phosphatase non-receptor type 22 (Homo sapiens) (UniProt Q9Y2R2)
# Sequence (Q9Y2R2 whole entry, looked up): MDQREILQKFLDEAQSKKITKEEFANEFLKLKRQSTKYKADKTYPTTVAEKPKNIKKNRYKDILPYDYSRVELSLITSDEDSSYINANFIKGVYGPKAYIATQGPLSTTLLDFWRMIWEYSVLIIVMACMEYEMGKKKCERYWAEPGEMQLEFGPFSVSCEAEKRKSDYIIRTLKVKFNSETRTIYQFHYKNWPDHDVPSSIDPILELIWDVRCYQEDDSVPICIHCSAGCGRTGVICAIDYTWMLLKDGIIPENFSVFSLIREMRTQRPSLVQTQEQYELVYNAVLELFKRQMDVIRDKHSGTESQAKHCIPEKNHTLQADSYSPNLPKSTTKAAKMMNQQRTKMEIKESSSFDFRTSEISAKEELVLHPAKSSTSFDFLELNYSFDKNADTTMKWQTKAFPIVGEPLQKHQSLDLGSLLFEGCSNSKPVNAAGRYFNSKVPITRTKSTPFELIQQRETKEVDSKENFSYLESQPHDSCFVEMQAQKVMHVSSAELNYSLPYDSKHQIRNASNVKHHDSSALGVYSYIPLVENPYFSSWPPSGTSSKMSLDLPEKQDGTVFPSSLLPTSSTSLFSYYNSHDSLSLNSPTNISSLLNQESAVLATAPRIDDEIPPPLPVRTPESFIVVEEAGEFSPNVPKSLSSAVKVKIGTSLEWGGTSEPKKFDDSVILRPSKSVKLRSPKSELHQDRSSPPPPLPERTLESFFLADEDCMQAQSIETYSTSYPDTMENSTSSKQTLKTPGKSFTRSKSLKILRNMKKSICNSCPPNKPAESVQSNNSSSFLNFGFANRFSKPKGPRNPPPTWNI
# test_name: PTPN22 lymphoid phosphatase activity blockers – biochemical, fluorescence intensity, uHTS (AID 1779);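 note: plate controls were vehicle with enzyme for no effect and no enzyme for full effect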
# applied_conditions: recombinant LYP phosphatase, at 11.5 µM, hits give high values
In all, about 290,000 compounds went through this assay and about 160 (0.055%) were called active. Many of the other results were omitted from the sample, so actives are more common in it than they were.
Measured inhibition, listed per entry for reference.
Please respond with the number in % and leave the unit unwritten.

Worked examples follow.
{"molecule": "O=C(O)C1Nc2c(O)cccc2C2C=CCC12 (stereo unspecified)", "metric": "inhibition", "recorded_number": 52}
{"molecule": "Cc1c(C(=O)O)sc2nc(/C=C/c3cccc(F)c3)[nH]c(=O)c12", "metric": "inhibition", "recorded_number": -4.3}
{"molecule": "O=C(Nc1nccs1)c1ccc(S(=O)(=O)c2ccccc2)cc1", "metric": "inhibition", "recorded_number": -4.6}
{"molecule": "COc1cc(SC#N)ccc1N=Cc1c(C)[nH]n(-c2ccc(C)c(C)c2)c1=O", "metric": "inhibition", "recorded_number": -5.7}
{"molecule": "O=C(OC1CCCCC1)c1ccc2c(c1)C1C=CCC1C(C(=O)O)N2 (stereo unspecified)", "metric": "inhibition", "recorded_number": 64}
{"molecule": "CC(O)CNc1nc2c(c(=O)n(Cc3ccc(Cl)c(Cl)c3)c(=O)n2C)n1C (stereo unspecified)", "metric": "inhibition", "recorded_number": -3.6}
{"molecule": "Cc1c(C(=O)O)sc2nc(/C=C/c3cccc(O)c3)[nH]c(=O)c12", "metric": "inhibition", "recorded_number": -5.3}
{"molecule": "Cc1ccc(CNC(=O)CN2CCN(c3ccc(F)cc3)CC2)cc1", "metric": "inhibition", "recorded_number": 1.2}
{"molecule": "COc1cc(SC#N)ccc1N=Cc1c(C)[nH]n(-c2ccc(C)cc2C)c1=O", "metric": "inhibition", "recorded_number": -3.1}
{"molecule": "Brc1cc2c(cc1CN1CCc3ccccc3C1)OCO2", "metric": "inhibition", "recorded_number": -4.6}

Record summary for O=C(NC1CCSc2ccccc21)c1ccc(C(F)(F)F)cc1 (stereo unspecified) : reported inhibition = -7.3

Record summary for Cc1ccnc(NCc2c(O)ccc3ccccc23)c1 : reported inhibition = -11.3

Record summary for O=C(N/N=C/c1ccccn1)c1ccccc1 : reported inhibition = 2.8

Record summary for Cn1nc(-c2ccccn2)nc2c(=O)n(C)c(=O)nc1-2 : reported inhibition = 73.5

Record summary for COc1cc(SC#N)ccc1N=Cc1c(C)[nH]n(-c2ccc(Cl)cc2)c1=O : reported inhibition = 80.6

Record summary for COc1cccc2c1NC(C(=O)O)C1CC=CC21 (stereo unspecified) : reported inhibition = 1.7

* * *

# system_under_test: Tyrosine-protein phosphatase non-receptor type 22 (Homo sapiens)
# test_name: PTPN22 lymphoid phosphatase activity blockers – biochemical, fluorescence intensity, uHTS (AID 1779);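 note: plate controls were vehicle with enzyme for no effect and no enzyme for full effect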
# applied_conditions: recombinant LYP phosphatase, at 11.5 µM, hits give high values
About 160 (0.055%) of roughly 290,000 compounds were called active. The entries come from a sample that favours actives as a whole.
metric: inhibition (%)
Please respond with the number in % and leave the unit unwritten.

Worked examples follow.
{"compound": "O=C(NCCCN1CCCC1=O)c1csc2ccccc12", "inhibition, %": -6.7}
{"compound": "O=C(NCCCN1CCCC1=O)c1cccs1", "inhibition, %": 2.8}
{"compound": "Cc1c(Cl)cccc1NC(=S)N=Nc1c(O)n(CN2CCOCC2)c2ccccc12", "inhibition, %": -0.8}
{"compound": "O=C(c1c(F)cccc1F)N1CCC(O)(c2cccnc2)CC1", "inhibition, %": -8.4}
{"compound": "CCCNC(=O)c1cccc(Cn2nc(C)c(Br)c2C)c1", "inhibition, %": -5.3}
{"compound": "Cc1cccc(NC(=S)N=Nc2c(O)n(CN3CCOCC3)c3ccccc23)c1C", "inhibition, %": -4.1}
{"compound": "COc1ccc(C(=O)n2ncc(C#N)c2N)cc1", "inhibition, %": -0.2}
{"compound": "CCC(C)[C@H](NC(=O)[C@@H]1CSC2c3ccccc3C(=O)N21)C(=O)NCC1CCCO1 (some centres undefined)", "inhibition, %": -11.5}

# context switch: different compound, same inhibition
The compound C=CCSc1nc2sc(-c3ccccc3)cc2c(=O)n1N , when measured on Tyrosine-protein phosphatase non-receptor type 22 (Homo sapiens), yielded inhibition of -7.2
